The origin of these recorded values is PubChem BioAssay (Tox21).

# TARGET_OR_TEST_SYSTEM: Glucocorticoid receptor (Homo sapiens) (UniProt P04150)
# Sequence (P04150 whole entry, looked up): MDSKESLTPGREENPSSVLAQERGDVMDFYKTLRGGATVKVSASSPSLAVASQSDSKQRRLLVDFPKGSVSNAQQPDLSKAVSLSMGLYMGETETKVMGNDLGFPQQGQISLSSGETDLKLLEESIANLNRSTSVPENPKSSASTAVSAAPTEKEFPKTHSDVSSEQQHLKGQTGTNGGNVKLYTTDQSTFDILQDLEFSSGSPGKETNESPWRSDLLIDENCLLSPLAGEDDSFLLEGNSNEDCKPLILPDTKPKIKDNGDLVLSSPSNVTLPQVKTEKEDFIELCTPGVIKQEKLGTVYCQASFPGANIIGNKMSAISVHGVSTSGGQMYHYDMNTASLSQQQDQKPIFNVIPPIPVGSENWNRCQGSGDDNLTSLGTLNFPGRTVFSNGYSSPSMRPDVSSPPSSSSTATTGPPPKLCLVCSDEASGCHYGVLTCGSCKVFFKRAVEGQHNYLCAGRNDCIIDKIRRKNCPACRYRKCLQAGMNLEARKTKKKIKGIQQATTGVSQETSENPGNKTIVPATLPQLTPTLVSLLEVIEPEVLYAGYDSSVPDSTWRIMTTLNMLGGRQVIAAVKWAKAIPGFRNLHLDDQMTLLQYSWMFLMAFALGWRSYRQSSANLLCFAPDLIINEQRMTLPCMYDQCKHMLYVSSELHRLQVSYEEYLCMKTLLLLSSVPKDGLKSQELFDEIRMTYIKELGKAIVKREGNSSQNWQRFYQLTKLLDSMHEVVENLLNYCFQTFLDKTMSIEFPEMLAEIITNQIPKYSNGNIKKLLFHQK
# ASSAY_REMARKS: qHTS assay to identify small molecule agonists of the glucocorticoid receptor (GR) signaling pathway (AID 720691); also: potency is read from the fitted curve at half-maximal effect
# MEASUREMENT_CONTEXT: GR-bla HeLa, beta-lactamase reporter ratio, 18 h; series mostly up to 62.4 µM
The source made the active and inactive calls. Calls follow the shape of the dose curve; as a rule, active = well fitted activation curve with a large enough effect in the signal ratio in the repeat runs (not every such curve was filed as active); inconclusive = weak or mixed curves, or effect the other way; inactive = no such curve, though single readings can be large or run the other way; the % refers to the signal ratio.
METRIC: Potency

In the examples that follow, each entry is paired with its recorded Potency.
| COMPOUND | TARGET_OR_TEST_SYSTEM | Potency |
| --- | --- | --- |
| CN(C)CCCCCCN(C)C (tested in a mixture with another compound) | Glucocorticoid receptor (Homo sapiens) (UniProt P04150) | inactive |
| C[N+]1([O-])[C@@H]2CC[C@H]1CC(OC(=O)C(CO)c1ccccc1)C2 (stereo partly drawn) | Glucocorticoid receptor (Homo sapiens) (UniProt P04150) | inactive |
| C[C@]12C[C@H]3S[C@H]3C[C@@H]1CC[C@@H]1[C@@H]2CC[C@]2(C)[C@@H](O)CC[C@@H]12 | Glucocorticoid receptor (Homo sapiens) (UniProt P04150) | inactive |
| CCC1(c2ccccc2)C(=O)NC(=O)N(C)C1=O (stereo not drawn) | Glucocorticoid receptor (Homo sapiens) (UniProt P04150) | inactive |
| O=C(Nc1ccccc1-c1ccc(Cl)cc1)c1cccnc1Cl | Glucocorticoid receptor (Homo sapiens) (UniProt P04150) | inactive |
| CC(=O)[C@@]1(O)CC[C@H]2[C@@H]3CCC4=CC(=O)CC[C@]4(C)C3(F)[C@@H](O)C[C@@]21C (stereo partly drawn) | Glucocorticoid receptor (Homo sapiens) (UniProt P04150) | 0.19 µM [inconclusive] (active) |
| [2H]C([2H])([2H])[C@H](N)Cc1ccccc1 | Glucocorticoid receptor (Homo sapiens) (UniProt P04150) | inactive |
| COc1ccc2c3c1O[C@H]1[C@@H](O)C=C[C@H]4[C@@H](C2)NCC[C@@]341 | Glucocorticoid receptor (Homo sapiens) (UniProt P04150) | inactive |

What value of measured Potency is listed for COC(COC(N)=O)C1=C(N2CC2)C(=O)C(C)=C(N2CC2)C1=O (stereo not drawn) ?
inactive

And for C[C@@H]1[C@H]2Cc3ccc(O)cc3[C@]1(C)CCN2C ?
inactive

And for CC[C@H]1[C@@H]2C[C@H]3[C@@H]4N(C)c5ccccc5[C@]45C[C@@H](C2[C@H]5O)N3[C@@H]1O (stereo partly drawn) ?
inactive

And for O=C1C=C2C=C[C@@H]3C[C@@]2(O1)[C@H]1CCCCN31 ?
inactive

And for O=[N+]([O-])c1cc(I)c(O)c(I)c1 ?
inactive

====

# ASSAY_REMARKS: qHTS assay to identify aromatase inhibitors - cell viability counter screen (AID 743084);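 also: cells stimulated with testosterone during compound exposure; nearly all actives have a fitted effect of over 55% in size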
# MEASUREMENT_CONTEXT: MCF-7 aro ERE viability, CellTiter-Fluor, 24 h; series mostly up to 70.3 µM
Records with an inconclusive call do not appear. Activity calls are given as the source filed them. Calls come from the whole dose curve; as a rule, active = well fitted cell-killing curve with a large enough effect in the repeat runs; inconclusive = weak or mixed curves, or effect the other way; inactive = no such curve, though single readings can be large or run the other way.
METRIC: outcome

In the examples that follow, each entry is paired with its recorded outcome.
| COMPOUND | outcome |
| --- | --- |
| CC1(C)[C@H](C=C(Cl)Cl)[C@H]1C(=O)OCc1c(F)c(F)cc(F)c1F | inactive |
| CCNC1(c2cccs2)CCCCC1=O (stereo not drawn) | inactive |
| C[C@]12CCC(=O)C[C@@H]1CC[C@@H]1[C@@H]2CC[C@@]2(C)[C@H]1CC[C@]2(C)O | inactive |
| CCCC(C)(COC(N)=O)COC(=O)NC1CC1 (stereo not drawn) | inactive |
| CN1[C@H]2CC[C@@H]1[C@@H](C(=O)O)[C@@H](OC(=O)c1ccccc1)C2 | inactive |
| C[C@@H]1[C@H]2Cc3ccc(O)cc3[C@]1(C)CCN2C | inactive |
| CN[C@@H](C)Cc1ccccc1 | inactive |
| C[N+]1(C)CCCCC1COC(=O)C(O)(c1ccccc1)c1ccccc1 (stereo not drawn) | inactive |
| CNC1(c2ccccc2Cl)CCCCC1=O (stereo not drawn) | inactive |
| CC[N+](C)(CC)CCOC(=O)C(O)(c1ccccc1)c1ccccc1 | inactive |

Would you kindly look at the next entry?
What value of measured outcome is listed for OC[C@@H](O)[C@H]1O[C@@H]2O[C@@H](C(Cl)(Cl)Cl)O[C@@H]2[C@H]1O ?
inactive
